Origin of measurements: patent US20260297085A1

molecular target: JAK2 kinase activity on STAT5 in TF1 cells (Homo sapiens, UniProt O60674); experiment: pSTAT5 cell assay (MSD; TF1 cells, 30 ng/mL IL-3 stimulation); conditions: 30 ng/mL IL-3, 15 minutes
Sequence (O60674 whole entry): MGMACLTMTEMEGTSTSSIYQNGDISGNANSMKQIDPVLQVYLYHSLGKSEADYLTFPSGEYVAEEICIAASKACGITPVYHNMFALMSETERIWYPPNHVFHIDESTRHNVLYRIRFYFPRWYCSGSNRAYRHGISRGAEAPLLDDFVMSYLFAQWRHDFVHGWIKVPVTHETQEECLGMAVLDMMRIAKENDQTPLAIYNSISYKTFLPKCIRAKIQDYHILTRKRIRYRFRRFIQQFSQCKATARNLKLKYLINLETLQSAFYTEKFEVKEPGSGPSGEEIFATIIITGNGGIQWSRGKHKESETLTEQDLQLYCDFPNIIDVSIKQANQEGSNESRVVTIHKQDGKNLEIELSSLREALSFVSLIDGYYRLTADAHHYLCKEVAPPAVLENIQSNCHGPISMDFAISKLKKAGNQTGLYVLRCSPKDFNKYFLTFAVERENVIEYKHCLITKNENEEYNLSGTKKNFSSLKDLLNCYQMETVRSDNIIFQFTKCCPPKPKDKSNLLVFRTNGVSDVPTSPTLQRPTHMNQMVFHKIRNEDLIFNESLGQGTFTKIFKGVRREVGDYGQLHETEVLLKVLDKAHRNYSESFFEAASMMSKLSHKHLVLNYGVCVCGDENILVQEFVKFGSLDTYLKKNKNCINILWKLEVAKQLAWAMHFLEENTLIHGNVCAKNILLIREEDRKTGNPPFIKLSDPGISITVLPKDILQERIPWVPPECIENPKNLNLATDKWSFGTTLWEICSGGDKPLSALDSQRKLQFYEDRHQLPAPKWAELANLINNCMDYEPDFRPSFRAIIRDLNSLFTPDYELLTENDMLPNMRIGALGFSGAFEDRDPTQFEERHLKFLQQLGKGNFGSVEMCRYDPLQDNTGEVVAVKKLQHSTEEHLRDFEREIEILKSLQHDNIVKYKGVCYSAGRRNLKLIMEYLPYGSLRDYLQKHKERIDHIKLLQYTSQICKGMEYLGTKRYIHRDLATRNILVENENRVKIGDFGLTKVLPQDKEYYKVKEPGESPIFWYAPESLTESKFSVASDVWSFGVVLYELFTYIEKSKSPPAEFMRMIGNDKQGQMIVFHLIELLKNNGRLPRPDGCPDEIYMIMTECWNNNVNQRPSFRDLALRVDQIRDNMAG
pIC50: −log10 of the molar value. Where a name gives a salt, the structure may show the parent alone.
readout.kind: pIC50

The examples below pair each entry with its known result.
# compound, pIC50
data = [
    ("Cc1cncc(-c2cc3c(N4C[C@@H](C)[C@@](C#N)(C5CC5)C4=O)ccnn3c2)c1", "< 5.00"),
    ("[2H]C([2H])([2H])n1cc(-c2cc3c(N4C[C@@H](C)[C@@](C#N)(C5CC5)C4=O)ccnn3c2)cn1", "5.00 to 5.30"),
    ("Cc1ccc(-c2cc3c(N4C[C@@H](C)[C@@](C#N)(C5CC5)C4=O)ccnn3c2)cn1", "5.00 to 5.30"),
    ("C[C@@H]1CN(c2ccnn3cc(-c4cnc(C(F)F)s4)cc23)C(=O)[C@]1(C#N)C1CC1 [Example 101, trifluoroacetate]", "< 5.00"),
    ("C[C@@H]1CN(c2ccnn3cc(-c4cnn([C@H]5COCC(F)(F)C5)c4)cc23)C(=O)[C@]1(C#N)C1CC1 (single isomer, unassigned)", "6.00 to 7.00"),
]

Field: next compound
# returns recorded pIC50 (system: JAK2 kinase activity on STAT5 in TF1 cells (Homo sapiens, UniProt O60674)) for C[C@@H]1CN(c2ccnn3cc(-c4cnn([C@@H]5CC5(F)F)c4)cc23)C(=O)[C@]1(C#N)C1CC1 (single isomer, unassigned)
5.30 to 6.00

###

# maps each entry to its IC50
molecular target: human TYK2 kinase domain (JH1) (Homo sapiens, UniProt P29597); construct: recombinantly generated catalytic kinase (also known as JH1) domain of human JAK1, JAK2, JAK3 and TYK2; assay: JH1 biochemical assay for TYK2 (ADP-Glo kinase assay, recombinant JH1 catalytic domain, JAK3-974 peptide, 10 μM ATP); details: TYK2 JH1, ADP-Glo
Sequence (P29597 897-1176 limits assumed): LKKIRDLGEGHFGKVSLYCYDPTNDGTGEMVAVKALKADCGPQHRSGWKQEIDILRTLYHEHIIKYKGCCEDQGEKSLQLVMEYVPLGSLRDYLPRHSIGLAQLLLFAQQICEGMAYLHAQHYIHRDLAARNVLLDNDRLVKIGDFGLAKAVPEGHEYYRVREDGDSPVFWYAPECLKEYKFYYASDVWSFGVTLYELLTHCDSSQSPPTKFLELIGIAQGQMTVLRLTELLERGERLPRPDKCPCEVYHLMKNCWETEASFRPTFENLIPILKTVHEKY
Structures can show the parent of a compound that is named as a salt.

Recorded results for 5 molecules are shown here.
# molecule, IC50
rows = [
    ("COc1cncc(-c2cn3ncc(F)c3c(N3C[C@@H](C)[C@@](C#N)(C4CC4)C3=O)n2)c1", "50 to 100 nM"),
    ("C[C@@H]1CN(c2nc(-c3cc[nH]n3)cn3nccc23)C(=O)[C@]1(C#N)C1CC1 [Example 232, trifluoroacetate]", "5 to 20 nM"),
    ("C[C@@H]1CN(c2ccnn3cc(-c4cnn([C@H]5COCC(F)(F)C5)c4)cc23)C(=O)[C@]1(C#N)C1CC1 (single isomer, unassigned)", "< 5 nM"),
    ("C[C@@H]1CN(c2cc(-c3cnn(C)c3)cc3ncnn23)C(=O)[C@]1(C#N)C1CC1", "> 100 nM"),
    ("C[C@@H]1CN(c2cc(-c3cnn(C)c3)cn3nccc23)C(=O)[C@]1(C#N)C1CC1", "5 to 20 nM"),
]

Any idea what IC50 came out for C[C@@H]1CN(c2ccnn3cc(-c4cnn(C5CC6(C5)CN(C)C6)c4)cc23)C(=O)[C@]1(C#N)C1CC1 on human TYK2 kinase domain (JH1) (Homo sapiens, UniProt P29597)?
< 5 nM

Record lookup: for human TYK2 kinase domain (JH1) (Homo sapiens, UniProt P29597), what IC50 belongs to C[C@@H]1CN(c2cc(-c3cnn(C)c3)cc3ncsc23)C(=O)[C@]1(C#N)C1CC1 ?
< 5 nM

Item C[C@@H]1CN(c2nn(-c3cnn(C4COC4)c3)c3cnccc23)C(=O)[C@]1(C#N)C1CC1 with human TYK2 kinase domain (JH1) (Homo sapiens, UniProt P29597) - IC50?
< 5 nM

Find the measured IC50: item C[C@@H]1CN(c2nc(-c3ccc4cnn(C)c4c3)cn3nccc23)C(=O)[C@]1(C#N)C1CC1 [Example 259, trifluoroacetate] , target or system human TYK2 kinase domain (JH1) (Homo sapiens, UniProt P29597).
< 5 nM

Return IC50 measured with human TYK2 kinase domain (JH1) (Homo sapiens, UniProt P29597) given this molecule: C[C@@H]1CN(c2nc(-c3cnn([C@H]4CO[C@@H]4C)c3)cn3ncc(F)c23)C(=O)[C@]1(C#N)C1CC1 (relative stereo)
< 5 nM

Could you share what IC50 was measured for C[C@@H]1CN(c2nc(-c3ccc4c(cnn4C)c3)cn3nccc23)C(=O)[C@]1(C#N)C1CC1 [Example 225, trifluoroacetate] , tested on human TYK2 kinase domain (JH1) (Homo sapiens, UniProt P29597)?
< 5 nM

Recall the recorded IC50 for C[C@@H]1CN(c2cc(-c3cnn(C)c3)cc3nscc23)C(=O)[C@]1(C#N)C1CC1 with human TYK2 kinase domain (JH1) (Homo sapiens, UniProt P29597) and state it.
20 to 50 nM

Record lookup: for human TYK2 kinase domain (JH1) (Homo sapiens, UniProt P29597), what IC50 belongs to C[C@@H]1CN(c2nc(-c3cnn(CC4(C#N)CC4)c3)cn3ncc(F)c23)C(=O)[C@]1(C#N)C1CC1 ?
< 5 nM

Give the reported IC50 for C[C@@H]1CN(c2ccnn3cc(-c4cnn(C5CN(C)C5)c4)cc23)C(=O)[C@]1(C#N)C1CC1 (system: human TYK2 kinase domain (JH1) (Homo sapiens, UniProt P29597)).
< 5 nM
